Every entry's value here was drawn from patent US5866562A.

target_or_test_system: apamine binding sites in bovine cerebral membranes (apamine-sensitive potassium channels)
protocol: Binding of ^125 I-apamine to bovine cerebral membranes
condition_notes: ^125 I-apamine 30 pM; calf hippocampus membranes; pH 7.4; 60 min on ice
Listed here are molecules together with their documented Ki.
A number alone suffices; assume nM.

c1ccc2c(N3CCCN(c4ccnc5ccccc45)CC3)ccnc2c1; 780

API: the following record is the query input.
In: Give Ki for the following molecule: Cc1cc(N2CCCN(c3cc(C)nc4c(C)cccc34)CC2)c2cccc(C)c2n1
Out: 35
